- run description: Clearance in mouse at 0.5 mg/kg, iv and 1 mg/kg, po
- Format: ADME, organism-based
- protocol conditions: in vivo
measurement type: clearance (mL/min/kg)
Report the value in mL/min/kg with no unit label.

Please review the entries below; each comes with its answer.
smiles_repr=Cc1cc(C2CCN(C(=O)[C@@H]3CN(C(C)(C)C)C[C@H]3c3ccc(F)cc3F)CC2)n(-c2ccc(Cl)cc2F)n1 measurement_type=clearance unit_info=mL/min/kg reading=51
smiles_repr=Cc1nc(C2CCN(C(=O)[C@H]3CN(C(C)(C)C)C[C@@H]3c3ccc(F)cc3F)CC2)n(-c2ccc(Cl)c(C)c2)n1 measurement_type=clearance unit_info=mL/min/kg reading=127
smiles_repr=Cc1cc(C2CCN(C(=O)[C@@H]3CN(C(C)(C)C)C[C@H]3c3ccc(F)cc3F)CC2)n(-c2ccc(F)cc2F)n1 measurement_type=clearance unit_info=mL/min/kg reading=63
smiles_repr=Cc1cc(C2CCN(C(=O)[C@@H]3CN(C(C)(C)C)C[C@H]3c3ccc(F)cc3F)CC2)n(-c2ccc(Cl)c(Cl)c2)n1 measurement_type=clearance unit_info=mL/min/kg reading=43

For the molecule O=C([C@@H]1CNC[C@H]1c1ccc(F)cc1F)N1CCC(c2ccnn2-c2ccc(F)c(Cl)c2)CC1 , what clearance is on record? 60

For the molecule CC(C)(C)N1C[C@@H](C(=O)N2CCC(c3nnnn3-c3ccc(Cl)cc3)CC2)[C@H](c2ccc(F)cc2F)C1 , what clearance is on record? 163

For the molecule Cc1cc(-n2nc(C3CCN(C(=O)[C@@H]4CN(C(C)(C)C)C[C@H]4c4ccc(F)cc4F)CC3)nc2C)ccc1Cl , what clearance is on record? 111

For the molecule Cc1cc(C2CCN(C(=O)[C@@H]3CN(C(C)(C)C)C[C@H]3c3ccc(F)cc3F)CC2)n(-c2ccc(Cl)cc2C)n1 , what clearance is on record? 65

For the molecule Cc1cc(C2CCN(C(=O)[C@@H]3CN(C(C)(C)C)C[C@H]3c3ccc(F)cc3F)CC2)n(-c2ccc(F)c(F)c2)n1 , what clearance is on record? 71

For the molecule Cc1cc(C2CCN(C(=O)[C@@H]3CN(C(C)(C)C)C[C@H]3c3ccc(F)cc3F)CC2)n(-c2ccc(Cl)cc2)n1 , what clearance is on record? 41

For the molecule Cc1cc(C2CCN(C(=O)[C@@H]3CN(C(C)(C)C)C[C@H]3c3ccc(F)cc3F)CC2)n(-c2ccc(Cl)cc2Cl)n1 , what clearance is on record? 57

For the molecule Cc1cc(C2CCN(C(=O)[C@@H]3CN(C(C)(C)C)C[C@H]3c3ccc(F)cc3F)CC2)n(-c2ccc(Cl)c(C)c2)n1 , what clearance is on record? 80

For the molecule CC(C)(C)N1C[C@@H](C(=O)N2CCC(c3ccnn3-c3ccc(F)c(Cl)c3)CC2)[C@H](c2ccc(F)cc2F)C1 , what clearance is on record? 121

For the molecule Cc1cc(C2CCN(C(=O)[C@@H]3CNC[C@H]3c3ccc(F)cc3F)CC2)n(-c2cc(Cl)ccc2Cl)n1 , what clearance is on record? 173

For the molecule Cc1cc(C2CCN(C(=O)[C@@H]3CN(C(C)(C)C)C[C@H]3c3ccc(F)cc3F)CC2)n(-c2ccc(F)c(Cl)c2)n1 , what clearance is on record? 68

All figures here come from ChEMBL document CHEMBL2021890.
